pIC50: −log10 of the molar value.
From various publications: pIC50 for BRD4 (Homo sapiens (Human)).
MEASUREMENT KIND: pIC50

>  <COMPOUND>
Cc1nn(C(C)C)c2c1C(c1ccc(Cl)cc1)N(c1cc(C)c(=O)n(C)c1)C2=O (stereo not drawn)

>  <MEASUREMENT KIND>
pIC50

>  <NUMERIC READOUT>
7.05

$$$$
>  <COMPOUND>
Cc1cc(N2C(=O)c3c(C4CC4)nn(-c4ccnn4C)c3[C@H]2c2ccc(Cl)cc2)cn(C)c1=O

>  <MEASUREMENT KIND>
pIC50

>  <NUMERIC READOUT>
6.85

$$$$
>  <COMPOUND>
Cc1c2c(nn1C(C)C)C(=O)N(c1cc(Cl)c(=O)n(C)c1)C2c1ccc(Cl)cc1 (stereo not drawn)

>  <MEASUREMENT KIND>
pIC50

>  <NUMERIC READOUT>
6.70

$$$$
>  <COMPOUND>
COCc1nn(C2CC2)c2c1C(c1ccc(Cl)cc1)N(c1cc(C)c(=O)n(C)c1)C2=O (racemic)

>  <MEASUREMENT KIND>
pIC50

>  <NUMERIC READOUT>
7.17

$$$$
>  <COMPOUND>
Cc1nn(-c2ccnn2C)c2c1C(c1ccc(Cl)cc1)N(c1cc(C)c(=O)n(C)c1)C2=O (racemic)

>  <MEASUREMENT KIND>
pIC50

>  <NUMERIC READOUT>
7.17

$$$$

(1) Cc1nn(C2CN(C)C2)c2c1C(c1ccc(Cl)cc1)N(c1cc(C)c3nnc(C)n3c1)C2=O (stereo not drawn)
(2) COCc1nn(C2CC2)c2c1[C@@H](c1ccc(Cl)cc1)N(c1cc(C)c(=O)n(C)c1)C2=O
(3) COc1ncc(-n2nc3c(c2C(C)C)C(c2ccc(Cl)cc2)N(c2ccc4onc(C)c4c2)C3=O)c(OC)n1 (stereo not drawn)
(4) Cc1noc2ccc(N3C(=O)c4nn(C)c(C)c4C3c3ccc(Cl)cc3)cc12 (stereo not drawn)
(5) COc1ccccc1-n1nc(C)c2c1C(=O)N(c1cc(C)c3nnc(C)n3c1)C2c1ccc(F)cc1F (stereo not drawn)
// sort entries: pIC50, high to low List each label, following the requested order.
5, 2, 1, 3, 4

(I) Cc1cc(N2C(=O)c3nc(C4CCOC4)n(C(C)C)c3C2c2ccc(Cl)cc2)nn2c(C)nnc12 (stereo not drawn)
(II) Cc1nn(-c2cccnc2F)c2c1C(=O)N(c1cc(C)c(=O)n(C)c1)C2c1ccc(Cl)cc1 (stereo not drawn)
Which of the two gives a bigger number for pIC50: I or II ? Returns: label corresponding to the selected item.
I
